Test system: CEM cells HIV-1 protection, formazan growth assay
Experiment notes: NCI AIDS Antiviral Assay
The source made the active and inactive calls.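 How the source made its calls: active means compounds giving half or more protection of infected cells from virus-caused growth loss, again on retest; inactive means the rest.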
Classes used: active, inactive

compound=Nc1nc2c(=O)c3ccccc3sc2s1 assayed_system="CEM cells HIV-1 protection, formazan growth assay" group=inactive
compound=CCOC(=O)c1cn(CC)c2ccc3ccsc3c2c1=O assayed_system="CEM cells HIV-1 protection, formazan growth assay" group=inactive
compound=O=C1C(c2ccc(Br)cc2)=[N+]([O-])c2ccccc21 assayed_system="CEM cells HIV-1 protection, formazan growth assay" group=inactive
compound=COC(=O)[C@@H]1C[C@H]([Se]c2ccccc2)CN1C(=O)OCc1ccccc1 assayed_system="CEM cells HIV-1 protection, formazan growth assay" group=inactive
compound="Nc1nc2c(ncn2C2OC(CO)CC2F)c(=O)[nH]1 (configuration not stated)" assayed_system="CEM cells HIV-1 protection, formazan growth assay" group=active
compound=Cc1ccnc2c1C(=O)C(=O)C=C2N1CCC(C)CC1 assayed_system="CEM cells HIV-1 protection, formazan growth assay" group=inactive
compound="C[n+]1c2ccccc2c(NC(CCC(N)=O)C(=O)O)c2ccccc21 (configuration not stated)" assayed_system="CEM cells HIV-1 protection, formazan growth assay" group=inactive
compound=O=S(O)CCCSSSCCCS(=O)O assayed_system="CEM cells HIV-1 protection, formazan growth assay" group=inactive
compound=Cc1nn(C(=O)c2c(O)cccc2Cl)c(C)c1N=Nc1ccccc1 assayed_system="CEM cells HIV-1 protection, formazan growth assay" group=inactive
compound="O=[N+]([O-])c1cccc(C2=NOC3CCCC23)c1 (configuration not stated)" assayed_system="CEM cells HIV-1 protection, formazan growth assay" group=inactive
compound=COc1ccc2oc(C(=O)O)c3c2c1CCC3 assayed_system="CEM cells HIV-1 protection, formazan growth assay" group=inactive
compound="COc1ccc(C2=C(Cl)c3cc(OC)c(OC)cc3C2Cl)cc1 (configuration not stated)" assayed_system="CEM cells HIV-1 protection, formazan growth assay" group=inactive
